biological target: Acetyl-CoA carboxylase 2 (Homo sapiens)
Sequence (O00763 whole entry): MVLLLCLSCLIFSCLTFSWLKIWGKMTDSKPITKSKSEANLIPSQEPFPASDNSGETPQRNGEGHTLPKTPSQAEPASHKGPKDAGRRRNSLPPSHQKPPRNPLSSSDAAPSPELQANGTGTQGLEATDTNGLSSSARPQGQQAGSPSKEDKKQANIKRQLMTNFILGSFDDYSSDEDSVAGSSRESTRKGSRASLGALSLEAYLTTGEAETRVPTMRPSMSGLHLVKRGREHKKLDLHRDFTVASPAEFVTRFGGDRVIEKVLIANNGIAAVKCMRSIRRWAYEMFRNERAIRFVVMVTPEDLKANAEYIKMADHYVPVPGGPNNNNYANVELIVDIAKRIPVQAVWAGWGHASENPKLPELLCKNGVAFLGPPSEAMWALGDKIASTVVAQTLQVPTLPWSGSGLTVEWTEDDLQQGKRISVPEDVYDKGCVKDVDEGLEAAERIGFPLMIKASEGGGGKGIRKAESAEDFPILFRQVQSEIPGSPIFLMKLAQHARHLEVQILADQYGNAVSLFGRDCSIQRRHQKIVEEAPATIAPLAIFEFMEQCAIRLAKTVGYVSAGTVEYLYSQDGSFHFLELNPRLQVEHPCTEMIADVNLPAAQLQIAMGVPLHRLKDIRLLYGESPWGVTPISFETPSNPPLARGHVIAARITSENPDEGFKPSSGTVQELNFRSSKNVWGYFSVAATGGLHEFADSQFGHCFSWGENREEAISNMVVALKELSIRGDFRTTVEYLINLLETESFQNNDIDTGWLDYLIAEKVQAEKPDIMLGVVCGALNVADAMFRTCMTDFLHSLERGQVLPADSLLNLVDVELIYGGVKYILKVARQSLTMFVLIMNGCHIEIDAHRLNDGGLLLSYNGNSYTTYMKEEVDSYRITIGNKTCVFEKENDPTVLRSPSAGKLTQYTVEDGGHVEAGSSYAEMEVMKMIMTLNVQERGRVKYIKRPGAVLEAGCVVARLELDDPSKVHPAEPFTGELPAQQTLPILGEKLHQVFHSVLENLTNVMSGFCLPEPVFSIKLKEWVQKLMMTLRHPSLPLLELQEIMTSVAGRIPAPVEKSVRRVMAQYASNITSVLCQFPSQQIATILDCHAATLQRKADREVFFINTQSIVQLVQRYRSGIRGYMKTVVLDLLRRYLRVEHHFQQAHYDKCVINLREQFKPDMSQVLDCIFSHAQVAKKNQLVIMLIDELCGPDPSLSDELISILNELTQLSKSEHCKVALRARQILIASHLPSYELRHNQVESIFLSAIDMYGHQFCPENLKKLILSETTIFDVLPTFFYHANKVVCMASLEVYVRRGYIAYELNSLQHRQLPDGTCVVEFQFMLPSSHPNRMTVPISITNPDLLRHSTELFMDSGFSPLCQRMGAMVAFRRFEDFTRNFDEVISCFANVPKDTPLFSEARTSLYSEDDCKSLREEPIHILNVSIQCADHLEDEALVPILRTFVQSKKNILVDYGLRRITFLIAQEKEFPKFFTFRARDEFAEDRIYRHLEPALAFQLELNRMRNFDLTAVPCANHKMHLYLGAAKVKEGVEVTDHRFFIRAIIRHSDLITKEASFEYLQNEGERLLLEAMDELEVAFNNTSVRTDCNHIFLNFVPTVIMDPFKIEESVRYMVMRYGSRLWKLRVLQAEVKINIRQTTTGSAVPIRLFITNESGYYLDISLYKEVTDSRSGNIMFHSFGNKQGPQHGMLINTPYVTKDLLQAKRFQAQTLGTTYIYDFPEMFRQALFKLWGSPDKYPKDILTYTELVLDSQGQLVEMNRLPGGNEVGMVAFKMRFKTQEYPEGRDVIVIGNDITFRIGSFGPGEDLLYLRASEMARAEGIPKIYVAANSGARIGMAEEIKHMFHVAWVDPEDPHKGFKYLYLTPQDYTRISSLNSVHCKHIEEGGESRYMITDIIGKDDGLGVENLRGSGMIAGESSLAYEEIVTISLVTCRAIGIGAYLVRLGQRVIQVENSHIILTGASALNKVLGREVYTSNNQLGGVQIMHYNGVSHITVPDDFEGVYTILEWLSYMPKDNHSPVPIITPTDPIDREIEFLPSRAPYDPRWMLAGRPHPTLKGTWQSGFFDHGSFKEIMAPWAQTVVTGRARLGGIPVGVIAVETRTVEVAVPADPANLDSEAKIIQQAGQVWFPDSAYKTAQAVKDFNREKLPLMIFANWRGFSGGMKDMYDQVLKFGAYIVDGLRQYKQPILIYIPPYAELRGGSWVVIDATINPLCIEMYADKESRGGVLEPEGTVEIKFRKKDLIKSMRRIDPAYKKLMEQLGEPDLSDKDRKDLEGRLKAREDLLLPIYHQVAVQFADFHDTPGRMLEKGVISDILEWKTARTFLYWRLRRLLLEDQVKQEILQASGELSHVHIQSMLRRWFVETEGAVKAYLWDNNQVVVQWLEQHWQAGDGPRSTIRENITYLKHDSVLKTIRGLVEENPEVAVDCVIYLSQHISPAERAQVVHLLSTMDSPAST
Metric: IC50 (nM)
Please reply with the bare figure in nM and do not write the unit itself.

Looking up CC(C#Cc1cnc(Oc2ccc(OC(C)C)cc2)s1)NC(=O)N1CCOCC1 (stereo not given) , I see its IC50 listed as 670

Looking up CC(C#Cc1cnc(Oc2ccc(Oc3ccccc3)cc2)s1)Nc1ccon1 (stereo not given) , I see its IC50 listed as 42

Looking up CC(C#Cc1cnc(Oc2ccc(Oc3ccccc3)cc2)s1)Nc1ncc[nH]1 (stereo not given) , I see its IC50 listed as 3980

Looking up CC(C#Cc1cnc(Oc2ccc(OC(C)C)cc2)s1)NC(=O)NO (stereo not given) , I see its IC50 listed as 330

Looking up CCn1ccc(NC(C)C#Cc2cnc(Oc3ccc(Oc4ccccc4)cc3)s2)n1 (stereo not given) , I see its IC50 listed as 440

Looking up CC(=O)NCC#Cc1cnc(Oc2ccc(OC(C)C)cc2)s1 , I see its IC50 listed as 1860

Looking up CC(C#Cc1cnc(Oc2ccc(OC(C)C)cc2)s1)NC(=O)C1CCCC1 (stereo not given) , I see its IC50 listed as 570
